# system-under-test: JAK3 (Homo sapiens, UniProt P52333)
# Construct: 5 μl of catalytic domain recombinant Kinase enzyme+Tyr peptide substrate (Invitrogen, CA)
# Sequence (P52333 822-1111 limits assumed): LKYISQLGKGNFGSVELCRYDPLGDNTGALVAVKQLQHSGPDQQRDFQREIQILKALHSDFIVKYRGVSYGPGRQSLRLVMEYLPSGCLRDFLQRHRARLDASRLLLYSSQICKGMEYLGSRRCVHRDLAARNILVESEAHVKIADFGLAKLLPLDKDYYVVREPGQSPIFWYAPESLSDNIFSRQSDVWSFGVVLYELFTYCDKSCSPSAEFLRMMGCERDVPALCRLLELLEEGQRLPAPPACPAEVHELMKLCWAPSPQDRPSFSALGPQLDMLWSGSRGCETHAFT
# experimental-details: Z'-LYTE kinase assay JAK3
reported-endpoint: IC50

[[record]]
structure_smiles_string = "COc1cc(Nc2cc(NCc3ccccc3)c(C(N)=O)cn2)ccc1C(=O)N(C)C"
reported_endpoint = "IC50"
recorded_result = "1 to 10 nM"

[[record]]
structure_smiles_string = "COC[C@@H](Nc1cc(Nc2ccc(OC)cc2)ncc1C(N)=O)c1ccccc1"
reported_endpoint = "IC50"
recorded_result = "10 to 100 nM"

[[record]]
structure_smiles_string = "NC(=O)c1cnc(Nc2ccc(Cl)cc2)cc1NCc1ccccc1"
reported_endpoint = "IC50"
recorded_result = "100 to 1000 nM"

[[record]]
structure_smiles_string = "CC(=O)N1CCN(c2ccc(Nc3cc(N[C@H](CO)c4ccccc4)c(C(N)=O)cn3)cc2)CC1"
reported_endpoint = "IC50"
recorded_result = "1 to 10 nM"

[[record]]
structure_smiles_string = "COCC(=O)N1CC(c2ccc(Nc3cc(NCc4cccc(F)n4)c(C(N)=O)cn3)cc2)C1"
reported_endpoint = "IC50"
recorded_result = "10 to 100 nM"


The compound COCCOc1cccc(Nc2cc(NCc3ccccc3)c(C(N)=O)cn2)c1 showed IC50 equal to 10 to 100 nM

The compound CCC(=O)N1CCC(c2ccc(Nc3cc(NCC4(c5ccccc5)CC4)c(C(N)=O)cn3)cc2)CC1 showed IC50 equal to 100 to 1000 nM

The compound NC(=O)c1cnc(Nc2ccc(C3CCNCC3)cc2)cc1NCc1cc(F)ccc1F showed IC50 equal to 1 to 10 nM

---

# system-under-test: JAK1 (Homo sapiens, UniProt P23458)
# Construct: 5 μl of catalytic domain recombinant Kinase enzyme+Tyr peptide substrate (Invitrogen, CA)
# Sequence (P23458 875-1153 limits assumed): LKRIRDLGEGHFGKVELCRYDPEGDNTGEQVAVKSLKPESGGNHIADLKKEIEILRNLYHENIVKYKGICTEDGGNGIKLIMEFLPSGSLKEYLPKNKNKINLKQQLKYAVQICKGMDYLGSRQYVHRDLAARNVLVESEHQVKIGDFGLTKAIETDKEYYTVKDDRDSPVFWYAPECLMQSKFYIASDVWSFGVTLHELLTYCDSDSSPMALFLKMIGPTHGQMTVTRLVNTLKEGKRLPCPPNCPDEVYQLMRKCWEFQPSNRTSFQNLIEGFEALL
# experimental-details: Z'-LYTE kinase assay JAK1
pIC50: −log10 of the molar value.
Reported pIC50 values for a set of compounds

Some solved entries appear below for comparison.
[[record]]
structure_smiles_string = "Cc1cc(Nc2cc(NCc3cccc4cc[nH]c34)c(C(N)=O)cn2)ccc1C(=O)N(C)C"
recorded_result = "< 6.00"

[[record]]
structure_smiles_string = "NC(=O)c1cnc(Nc2cccc(OCCN3CCCC3)c2)cc1N[C@H](CO)c1ccccc1"
recorded_result = "< 6.00"

[[record]]
structure_smiles_string = "NC(=O)c1cnc(Nc2ccc(C3CNC3)cc2)cc1NCc1cccc(F)c1F"
recorded_result = "6.00 to 7.00"

[[record]]
structure_smiles_string = "NC(=O)c1cnc(Nc2cccc(OCCN3CCCC3)c2)cc1NCc1ccccc1F"
recorded_result = "6.00 to 7.00"


We next turn to a different compound, shown below.
The compound CNC(=O)c1cccc(Nc2cc(NCc3ccccc3)c(C(N)=O)cn2)c1 showed pIC50 equal to 6.00 to 7.00

---

Reported IC50 values for a set of compounds
# system-under-test: JAK2 (Homo sapiens, UniProt O60674)
# Construct: 5 μl of catalytic domain recombinant Kinase enzyme+Tyr peptide substrate (Invitrogen, CA); purchased Invitrogen
# Sequence (O60674 849-1124 limits assumed): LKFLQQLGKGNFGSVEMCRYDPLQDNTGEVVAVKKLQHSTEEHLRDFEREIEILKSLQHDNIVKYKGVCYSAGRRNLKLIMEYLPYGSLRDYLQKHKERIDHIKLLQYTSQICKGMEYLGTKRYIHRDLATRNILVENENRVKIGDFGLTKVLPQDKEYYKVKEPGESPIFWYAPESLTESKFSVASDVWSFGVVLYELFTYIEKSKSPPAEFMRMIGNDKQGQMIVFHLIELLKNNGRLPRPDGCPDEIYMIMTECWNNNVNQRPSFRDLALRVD
# experimental-details: Z'-LYTE kinase assay JAK2
# Assay type: biochemical

[[record]]
compound = "CC(=O)N1CCN(c2ccc(Nc3cc(NCc4ccc5c(c4)OCO5)c(C(N)=O)cn3)cc2)CC1 [Example 254]"
recorded_result = "100 to 1000 nM"

[[record]]
compound = "COc1ccc(Nc2cc(NCc3ccccc3)c(C(N)=O)cn2)cc1 [Example 12]"
recorded_result = "100 to 1000 nM"

[[record]]
compound = "CN(C(=O)C1CC1)c1ccc(Nc2cc(NCc3cncc(F)c3)c(C(N)=O)cn2)cc1 [Example 481]"
recorded_result = "100 to 1000 nM"

[[record]]
compound = "COCCOc1ccc(Nc2cc(NCc3ccccc3)c(C(N)=O)cn2)cc1 [Example 432]"
recorded_result = "100 to 1000 nM"

[[record]]
compound = "CCC(=O)N1CCN(c2ccc(Nc3cc(NC4(c5cccc(F)c5F)CC4)c(C(N)=O)cn3)cc2)CC1 [Example 374]"
recorded_result = "10 to 100 nM"


The compound CCC(=O)N1CCC(c2ccc(Nc3cc(NCC4CCOCC4)c(C(N)=O)cn3)cc2)CC1 [Example 144] showed IC50 equal to 100 to 1000 nM

The compound NC(=O)c1cnc(Nc2ccc3ncsc3c2)cc1NCc1ccccc1 [Example 90] showed IC50 equal to > 1000 nM

The compound CC(C)(C)CNc1cc(Nc2ccc(C3CCOCC3)cc2)ncc1C(N)=O [Example 155] showed IC50 equal to 100 to 1000 nM

The compound CN1CCC(c2ccc(Nc3cc(NCc4ccccc4F)c(C(N)=O)cn3)cc2)CC1 [Example 107] showed IC50 equal to 100 to 1000 nM

The compound CC(=O)N1CCN(c2ccc(Nc3cc(NCc4cccc(F)c4)c(C(N)=O)cn3)cc2)CC1 [Example 229] showed IC50 equal to 10 to 100 nM

The compound CN1CCC(C(=O)Nc2cc(Nc3cc(NC4(c5ccccc5)CC4)c(C(N)=O)cn3)ccc2Cl)CC1 [Example 136] showed IC50 equal to > 1000 nM
